z-score values, listed per item
MEASURED_TARGET: NADPH oxidase 4 (Homo sapiens)
ASSAY_SUMMARY: NOX4-dependent H2O2 signal modulators, primary screen, NOX inhibitor project, cell-based, HEK293-NOX4, tetracycline-induced, Amplex Red fluorescence (AID 1160)
DETAILS: 45 min, higher = more signal, called active from +8 up or from −8 down
// no unit, no text: just the number

>>> data_value("C[C@H]1CC[C@@H](C(=O)O)N[C@@H]1c1cccc(N2CCCC2=O)c1")
0.00437
>>> data_value("Cc1cc(C)c(-c2cc([C@H](C)ON=C[C@@H](C)[C@H](OCc3ccccc3)C(C)C)on2)c(C)c1")
-0.299
>>> data_value("COc1cccc([C@H]2Oc3ccc(OC)cc3C(=NO[C@@H](C)c3cc(-c4c(C)cc(C)cc4C)no3)[C@@H]2O)c1")
0.21
>>> data_value("CO[C@@H](C(C)C)[C@@H](C)C1OC(=O)CC1O (stereo partly specified)")
0.129
>>> data_value("C=CC[C@@H]1C=C[C@H](ON=CC[C@@H]2C=C[C@H](OC(C)=O)[C@@H](COC(C)=O)O2)[C@@H](CO)O1")
0.319

Alright, here's another molecule for you.
Measured z-score of CCOC(=O)[C@H](Cc1ccccc1)NC(=O)CCC1CC(OC(=O)NCCc2ccc(F)cc2)CC2(CCCC(COC(=O)NCCOc3ccccc3)O2)O1 (stereo partly specified) : 0.767
